Assignment: determine reported GI50 for the given compounds.
# Test system: SNB-78
# Measurement Notes: NCI tumour cell line growth inhibition, 48 h
Active and inactive are the calls of the source. Cut-off read from the data, not from the text of the source: active = GI50 up to about 1.1 µM and inactive = higher.

Just so you know, measured GI50 for COc1ccc2c(c1)C(CCN)C(=O)N2 (stereo unspecified) came out at > 100 µM (inactive)

Just so you know, measured GI50 for CN/N=C(/CCN1CCCC1)CC(c1ccccc1)c1c(O)c2ccccc2oc1=O (stereo unspecified) came out at > 100 µM (inactive)

Just so you know, measured GI50 for C=C(c1ccccc1)[C@@]1(O)CC[C@@H]1N(CC#N)Cc1ccccc1 came out at 31.2 µM (inactive)

Just so you know, measured GI50 for O=C1CCCc2c(O)ccc(O)c21 came out at > 100 µM (inactive)

Just so you know, measured GI50 for C1CSCCSCCCS[C@@H]2CCCCC2SC1 (stereo partly specified) came out at > 100 µM (inactive)

Just so you know, measured GI50 for COc1ccc2c(c1)c[n+](C)c1c3cc(OC)c(OC)cc3ccc21 came out at 6.95 µM (inactive)

Just so you know, measured GI50 for O=C(c1ccco1)N(C(=S)N1CCN(c2ccccn2)CC1)C1CCCCC1 came out at > 100 µM (inactive)

Just so you know, measured GI50 for CC[As](CC)SCC1OC(OC(C)=O)C(OC(C)=O)C(OC(C)=O)C1OC(C)=O (stereo unspecified) came out at 10.4 µM (inactive)

Just so you know, measured GI50 for COc1ccc2c(c1)CCc1cnn(C3OC(COC(C)=O)C(OC(C)=O)C(OC(C)=O)C3OC(C)=O)c1-2 (stereo unspecified) came out at > 100 µM (inactive)

Just so you know, measured GI50 for COc1cc2cc3c4c(cc(OC)c(OC)c4c2cc1OC)CCN3C(=O)OCCN1CCNCC1 came out at 16 µM (inactive)

Just so you know, measured GI50 for Cc1cc(NS(=O)(=O)c2ccc(Nc3c4ccccc4nc4c(C(=O)NCCN(C)C)ccc(Cl)c34)cc2)no1 came out at 10.7 µM (inactive)

Just so you know, measured GI50 for C#CCNC(=O)NC(CCCNC(=O)OCc1ccccc1)C(=O)OCc1ccccc1 (stereo unspecified) came out at > 100 µM (inactive)

Just so you know, measured GI50 for COC(=O)c1c2c(c(-c3ccccc3)c3c1-c1nc(Cl)ccc1CC3)CCc1ccc(Cl)nc1-2 came out at 37.9 µM (inactive)

Just so you know, measured GI50 for COc1cc2cc3c4c(cc(OC)c(OC)c4c2cc1OC)CCN3C(=O)CCC(=O)NCCCN(C)C came out at > 100 µM (inactive)

Just so you know, measured GI50 for NC1=NN(c2ccccc2)C(=O)C1C(=O)C(=O)Nc1cccc(C(F)(F)F)c1 (stereo unspecified) came out at > 100 µM (inactive)

Just so you know, measured GI50 for Cc1ccc2c(c1)CN(C(=O)CCC(=O)OCc1ccccc1)c1ccc(C)cc1CN2C(=O)CCC(=O)OCc1ccccc1 came out at > 100 µM (inactive)

Just so you know, measured GI50 for CC1CCC2(C)C(CC=C(C=O)C2(O)C=O)C12CO2 (stereo unspecified) came out at 2.07 µM (inactive)

Just so you know, measured GI50 for O=c1oc2c(O)c(O)c(O)c3c(=O)oc4c(O)c(O)cc1c4c23 [FLAVELLAGIC ACID] came out at > 100 µM (inactive)

Just so you know, measured GI50 for CC(N)Cc1ccc(Cl)c(Cl)c1 (stereo unspecified) came out at 28.4 µM (inactive)

Just so you know, measured GI50 for COc1cccc(C=O)c1[O-].COc1cccc(C=O)c1[O-].[Zn+2] came out at > 100 µM (inactive)

Just so you know, measured GI50 for CCOC1C(Br)Cn2c(=O)c3cc4ccccc4cc3c(=O)n2C1C (stereo unspecified) came out at > 100 µM (inactive)
